These measurements were taken from paper doi:10.1101/2023.01.23.525163.

target: His-caltubin-Tat (cell-penetrating caltubin) (Lymnaea stagnalis | HIV); assay: ITC
REPORTED_METRIC: pKd
One number for each entry, as −log10 of the molar value.

Value lookup for pKd; key = Ac-LDHKFDLMYAKRAFV-NH2 [L391 peptide (synthetic, TUBA1 L391-V405)]
5.47
